Data origin, for the record: paper PMC7088350

System: Human Erythroleukemia Cells (HEL)
Test: Cytotoxicity
Format: cell-based
Conditions: morphological changes detected microscopically
measurementLabel: MCC (minimum cytotoxic concentration)

[
  {
    "moleculeSmiles": "O=c1[nH]c(=O)n([C@H]2C[C@H](O)[C@@H](CO)O2)cc1/C=C/Br",
    "MCC (minimum cytotoxic concentration)": ">250 µM"
  },
  {
    "moleculeSmiles": "Nc1ccn(C[C@@H](CO)OCP(=O)(O)O)c(=O)n1",
    "MCC (minimum cytotoxic concentration)": ">250 µM"
  },
  {
    "moleculeSmiles": "Nc1nc2c(ncn2COCCO)c(=O)[nH]1",
    "MCC (minimum cytotoxic concentration)": ">250 µM"
  }
]

// below: MCC (minimum cytotoxic concentration) requested for another molecule
Consider the molecule Nc1nc(O)c2ncn(COC(CO)CO)c2n1 and give its measured MCC (minimum cytotoxic concentration).
>100 µM

====

Catalogue of molecules with associated MCC
Test system: Cocker Spaniel Hepatocytes (MDCK)
Assay: Cytotoxicity in MDCK cells
Assay type: cell-based

[
  {
    "molecule": "CC(=O)N[C@H]1[C@H]([C@H](O)[C@H](O)CO)OC(C(=O)O)=C[C@@H]1N=C(N)N [Zanamivir]",
    "measurementTarget": "Cocker Spaniel Hepatocytes (MDCK)",
    "MCC": ">100 µM"
  },
  {
    "molecule": "NC(=O)c1ncn([C@@H]2O[C@H](CO)[C@@H](O)[C@H]2O)n1 [Ribavirin]",
    "measurementTarget": "Cocker Spaniel Hepatocytes (MDCK)",
    "MCC": ">100 µM"
  },
  {
    "molecule": "NC12CC3CC(CC(C3)C1)C2 [Amantadine]",
    "measurementTarget": "Cocker Spaniel Hepatocytes (MDCK)",
    "MCC": ">200 µM"
  }
]

// below: MCC requested for another molecule
Consider the molecule CC(N)C12CC3CC(CC(C3)C1)C2 (stereo not shown) [Remantadine] and give its measured MCC.
>200 µM

====

Observed MIC50 for Simplex herpes 2 G virus, reported per entry below.
Answer with a number only, understood to be in µM.

Solved cases (3 shown):
[
  {
    "compound": "Nc1ccn(C[C@@H](CO)OCP(=O)(O)O)c(=O)n1 [Cidofovir]",
    "units": "µM",
    "MIC50": 2
  },
  {
    "compound": "Nc1nc2c(ncn2COCCO)c(=O)[nH]1 [Acyclovir]",
    "units": "µM",
    "MIC50": 0.08
  },
  {
    "compound": "O=c1[nH]c(=O)n([C@H]2C[C@H](O)[C@@H](CO)O2)cc1/C=C/Br [Brivudine]",
    "units": "µM",
    "MIC50": 183
  }
]

// below: MIC50 requested for another compound
Lab note: need MIC50 for Nc1nc(O)c2ncn(COC(CO)CO)c2n1 [Ganciclovir] on Simplex herpes 2 G virus, anyone have it?
0.03

====

Catalogue of molecules with associated CC50
Assay: Cytotoxicity in MDCK cells
Type: cell-based, Cocker Spaniel
Details: dog

Consider the molecule NC12CC3CC(CC(C3)C1)C2 and give its measured CC50.
> 200 µM

Consider the molecule CC(=O)N[C@H]1[C@H]([C@H](O)[C@H](O)CO)OC(C(=O)O)=C[C@@H]1N=C(N)N and give its measured CC50.
> 100 µM

Consider the molecule NC(=O)c1ncn([C@@H]2O[C@H](CO)[C@@H](O)[C@H]2O)n1 and give its measured CC50.
> 100 µM
